- Target or system: LS12 E34S (Archaeoglobus fulgidus scaffold, laboratory-evolved)
- Sequence: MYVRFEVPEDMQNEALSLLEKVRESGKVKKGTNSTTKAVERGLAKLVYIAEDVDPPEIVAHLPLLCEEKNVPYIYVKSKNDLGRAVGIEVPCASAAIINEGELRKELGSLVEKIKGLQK
- Protocol details: SPR
- Condition details: N.D. in Table S4; SPR: 10 mM HEPES pH 7.4, 150 mM NaCl, 1 mM MgCl2, 0.05% P20, 0.25 mM TCEP, 0.1 mg/ml BSA, 25 ug/ml yeast tRNA, 25 C; EMSA: 10 mM HEPES-KOH pH 7.5, 140 mM KCl …
Measure name: Kd

Task item: Please provide the recorded Kd for GGUGGCAUAGAAAGGCGAAAGCCUUGUGUGGCCAUCAAAUCGACGAAAGACACAGAACG [CS1-M2] , tested on LS12 E34S (Archaeoglobus fulgidus scaffold, laboratory-evolved).
Reply: > 1000 nM

* * *

- Target or system: LS12 E34S (Archaeoglobus fulgidus scaffold, laboratory-evolved) (UniProt O29494)
- Sequence: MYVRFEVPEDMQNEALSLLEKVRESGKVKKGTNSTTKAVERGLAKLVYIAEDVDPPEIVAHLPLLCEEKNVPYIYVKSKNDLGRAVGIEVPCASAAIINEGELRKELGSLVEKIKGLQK
- Protocol details: SPR
- Condition details: equilibrium analysis; SPR: 10 mM HEPES pH 7.4, 150 mM NaCl, 1 mM MgCl2, 0.05% P20, 0.25 mM TCEP, 0.1 mg/ml BSA, 25 ug/ml yeast tRNA, 25 C; EMSA: 10 mM HEPES-KOH pH 7.5, 140 mM KCl …
For each record, write down the corresponding pKd.
One number for each entry, as −log10 of the molar value.

GGUGGCAGAGAAAGGCGAAAGCCUUGUGAGGCCAUCAAAUCGACGAAAGACACAGAACG [CS1] : 7.56

Task item: Please provide the recorded pKd for GGUGGCUGAGAAAGGCGAAAGCCUUGUGAUGCCAUCAAAUCGACGAAAGACACAGAACG [CS1-M1] , tested on LS12 E34S (Archaeoglobus fulgidus scaffold, laboratory-evolved) (UniProt O29494).
Reply: 8.11

* * *

- Target or system: LS4 (Archaeoglobus fulgidus scaffold, laboratory-evolved) (UniProt O29494)
- Protocol details: SPR
- Condition details: SPR: 10 mM HEPES pH 7.4, 150 mM NaCl, 1 mM MgCl2, 0.05% P20, 0.25 mM TCEP, 0.1 mg/ml BSA, 25 ug/ml yeast tRNA, 25 C; EMSA: 10 mM HEPES-KOH pH 7.5, 140 mM KCl …
For each record, write down the corresponding pKd.
Answers are plain numbers, as −log10 of the molar value.

Previously resolved entries follow.
GGUGGCAGAGAAAGGCGAAAGCCUUGUGAGGCCAUCAAAUCGACGAAAGACACAGAACG [CS1] : 11.17
GGUGGCAAAGAAAGGCGAAAGCCUUGUGAGGCCAUCAAAUCGACGAAAGACACAGAACG [CS1-M2b] : 10.06
GGAUGCAGAGAACGAAAGUUCCAUGACGCAUCCAAAUCGACGAAAGACACAGAACG [CS2] : 6.94

Now consider a different sequence.
Task item: I'd like to know its pKd. The sequence in question is GGUGGCUGAGAAAGGCGAAAGCCUUGUGAUGCCAUCAAAUCGACGAAAGACACAGAACG [CS1-M1]
Reply: 9.77
